Recorded IC50 for the following compounds
# SYSTEM TESTED: Replicase polyprotein 1ab (Severe acute respiratory syndrome coronavirus 2, UniProt P0DTD1)
# ASSAY: Functional biochemical assay to identify treatments for viral infectious disease that targets SARS-COV-2 nsp3 macrodomain, whereby the mechanism of action displaces an ADP-Ribose modified peptide from the binding site. Utilizing a time-resolved fluorescence method to measure binding by reading the emitted fluorescence intensity in two wavelengths.
MEASURED METRIC: IC50

> print(dat)
                                smiles.entry  measured.metric  result.value
 1  CC(C)[C@@H](Nc1cc(C(N)=O)ccn1)c1ccc2c(c1)S(=O)(=O)CCC2             IC50     > 99.5 µM
 2  Cc1[nH]c2ncnc(NC(=O)c3ccc(N(C)C)nc3)c2c1C             IC50     > 99.5 µM
 3        Cc1[nH]c2ncnc(NC(=O)c3ccncc3)c2c1C             IC50     > 99.5 µM
 4  Cc1n[nH]nc1C(=O)N1CCC(c2ccn3ncc(C(=O)N4CCCCC4)c3c2)CC1             IC50     > 99.5 µM
 5  O=C(c1c[nH]c(=O)cn1)N1CCC(c2ccn3ncc(C(=O)N4CCCCC4)c3c2)CC1             IC50       78.4 µM
 6  CC(C)[C@@H](NC(=O)c1ncnc2[nH]ccc12)c1ccc2c(c1)S(=O)(=O)CCC2             IC50     > 99.5 µM
 7  CC(C)[C@@H](Nc1cc(-c2cc[nH]n2)ncn1)c1ccc2c(c1)OCCO2             IC50     > 99.5 µM
 8  CNc1c[nH]c2ncnc(N[C@@H](c3ccc4c(c3)OCCO4)C(C)C)c12             IC50       28.9 µM
 9  CC(C)[C@@H](Nc1ncnc2[nH]c(S(C)(=O)=O)cc12)c1ccc2c(c1)S(=O)(=O)CCC2             IC50      0.992 µM
10  Cn1cc([C@@H](Nc2ncnc3[nH]ccc23)C2CCC2)cn1             IC50         15 µM
11  C[C@@H](Nc1ncnc2[nH]ccc12)[C@@H]1CCS(=O)(=O)C1             IC50     > 99.5 µM
12  CC(C)[C@@H](Nc1c(N)cnc2[nH]ccc12)c1ccc2c(c1)S(=O)(=O)CCC2             IC50     > 99.5 µM
13  CC(C)[C@@H](NCc1cccc2[nH]ccc12)c1ccc2c(c1)OCCO2             IC50     > 99.5 µM
14  CC(C)[C@H](Nc1ncnc2[nH]c(C(=O)N[C@H]3CCN(C)C3)cc12)c1ccc2c(c1)S(=O)(=O)CCC2             IC50       3.15 µM
15  CC(C)[C@@H](c1ccc2c(c1)OCCO2)N(C)c1ncnc2[nH]c(Br)cc12             IC50     > 99.5 µM
16  O=C(Nc1ncnc2c(C(=O)N[C@@H](c3cccs3)C3CCCC3)csc12)NC1CC1             IC50     > 99.5 µM
17    Cc1[nH]c2ncnc(NC(=O)c3cc(Cl)ccn3)c2c1C             IC50     > 99.5 µM
18  CC(C)[C@@H](Nc1nccc2[nH]c(=O)[nH]c12)c1ccc2c(c1)S(=O)(=O)CCC2             IC50     > 99.5 µM
19  Cc1n[nH]c(C)c1C(=O)N1CCC(c2ccn3ncc(C(=O)N4CCCCC4)c3c2)CC1             IC50     > 99.5 µM
20  CC(C)[C@H](Nc1cc(NCC(F)(F)F)ncn1)c1ccc2c(c1)S(=O)(=O)CCC2             IC50     > 99.5 µM
21        CCC[C@@H](Nc1ncnc2[nH]ccc12)C(=O)O             IC50     > 99.5 µM
22  CC(C)[C@H](Nc1ncnc2c1OCCO2)c1ccc2c(c1)S(=O)(=O)CCC2             IC50       38.4 µM
23  COc1cn[nH]c1NC(=O)c1cc2c(N[C@@H](c3ccc4c(c3)OCCO4)C(C)C)ncnc2[nH]1             IC50       72.6 µM
24  Cc1ccc2c(c1)C[C@@H](C(=O)N(C)CC[C@@H](Nc1ncnc3[nH]ccc13)C(C)C)S2             IC50     > 99.5 µM
25  CC(C)[C@H](Nc1nccc2[nH]ccc12)c1ccc2c(c1)S(=O)(=O)CCC2             IC50     > 99.5 µM
26  Cc1cc2c(C(=O)N[C@@H](CC(=O)O)c3ccc(Br)cc3)cccc2[nH]1             IC50     > 99.5 µM
27  O=C(O)[C@H]1C[C@@H](F)CN1c1ncnc2[nH]ccc12             IC50     > 99.5 µM
28  CNC(=O)c1c[nH]c2ncnc(N[C@@H](c3ccc4c(c3)NC(=O)CO4)C(C)C)c12             IC50      0.306 µM
29  CC(C)[C@@H](Nc1ncnc2[nH]c(-c3cn(C)nc3C3CC3)cc12)c1ccc2c(c1)OCCO2             IC50       1.19 µM
30       O=C(OCc1cccc(Cl)n1)c1ncnc2[nH]ccc12             IC50      > 124 µM
31  CC[C@@H]1C[C@@H](C(=O)Nc2ncnc3[nH]c(C)c(C)c23)CCO1             IC50      > 124 µM
32  CC(C)(NC(=O)c1ncnc2[nH]ccc12)c1cc(C(=O)O)[nH]n1             IC50     > 99.5 µM
33  O=C(N[C@@H](CCO)c1ccccc1F)c1ncnc2[nH]ccc12             IC50     > 99.5 µM
34  CC(C)[C@H](Oc1cc(N)ncn1)c1ccc2c(c1)S(=O)(=O)CCC2             IC50       59.8 µM
35  CC(C)[C@H](Nc1ncnc2[nH]c(-c3cnn(C)c3)cc12)c1ccc2c(c1)S(=O)(=O)CCC2             IC50       9.14 µM
36  COc1c(Cl)ncnc1N[C@@H](c1ccc2c(c1)S(=O)(=O)CCC2)C(C)C             IC50     > 99.5 µM
37  Cn1c(C(=O)O)c(NC(=O)c2ccc(NC(=O)NC3CC3)cc2)c2ccccc21             IC50     > 99.5 µM
38  O=C(Nc1ccc(C(=O)Nc2c(C(=O)O)sc3ccncc23)cc1)NC1CC1             IC50     > 99.5 µM
39  CC(C)[C@H](Nc1ncnc2[nH]cnc12)c1ccc2c(c1)S(=O)(=O)CCC2             IC50      0.743 µM
